- System: Saccharomyces cerevisiae
- PROTOCOL_TEXT: protein stability index of tFT-peptide fusion (C-terminal peptide) (PSI (0-1 scale)); higher = more stable (slower turnover);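 also: PSI is a weighted mean of sequencing reads over stability bins, variants kept only with over 10 reads, mCherry proximal and sfGFP distal, peptide attached via GGGS linker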
- REPORTED_CONDITIONS: genetic background: wild type; temperature: 37 C
Label FALSE if protein stability index falls below 0.4; label TRUE in every other case.

Exercise: # bool: protein stability index of LCSCAVVICCSL >= 0.4
Key: TRUE

====

- Tested on: Saccharomyces cerevisiae
- PROTOCOL_TEXT: protein stability index of tFT-peptide fusion (C-terminal peptide) (PSI (0-1 scale)); higher = more stable (slower turnover)
- REPORTED_CONDITIONS: genetic background: wild type; temperature: 30 C
protein stability index reference
Number, no unit, nothing else.

WLSFAIECGMVW | 0.357

Exercise: So what does the record say about protein stability index for LPPPPIAPPLTP ?
Key: 0.689

Exercise: Entry to check: EASGPGPGAKAT
Key: 0.653

Exercise: Entry to check: LLPSLFLLPPSA
Key: 0.743

Exercise: Entry to check: CFPALSGVQGGM
Key: 0.706

Exercise: Entry to check: PATRHSRLPPAS
Key: 0.67

Exercise: Entry to check: PLPPPPPLPFHL
Key: 0.79

Exercise: Entry to check: GHVGFSKVSGKG
Key: 0.664

Exercise: Entry to check: NPFLHQSMGQLT
Key: 0.724

Exercise: Entry to check: EYAVDAERLRTT
Key: 0.72

Exercise: Entry to check: FMSGIVDLQRPL
Key: 0.691

Exercise: Entry to check: VVSLGLGGFVVR
Key: 0.719

Exercise: Entry to check: YISLQKGVMNEL
Key: 0.728

Exercise: Entry to check: CCGHEFEIYNWV
Key: 0.786

From: the supplement of paper PMC10724198
